Values compiled from paper PMC12136788.

target-or-system: T1, UNK ZnF1-3 (human, UniProt Q9C0B0 31-174)
T1 sequence: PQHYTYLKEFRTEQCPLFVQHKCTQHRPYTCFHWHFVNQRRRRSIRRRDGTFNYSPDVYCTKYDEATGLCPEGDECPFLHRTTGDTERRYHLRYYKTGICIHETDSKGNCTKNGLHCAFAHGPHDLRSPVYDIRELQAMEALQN
experiment-summary: nsRBNS (natural sequence RNA bind-n-seq); RBNS binding buffer (assumed for nsRBNS): 25 mM Tris pH 7.5, 150 mM KCl, 3 mM MgCl2, 0.01% Triton X-100, 500 ug/ml BSA, 20 U/ml SUPERase-In, 4 C; UNK is unkempt and MSI1 is Musashi-1; names of the RNAs are library labels; protein concentration not given here; high values mean tight binding
The full ranking holds about 24,000 sequences; the median of “enrichment r” is about 0.99, and the highest 2% start at about 3.7. For the sample, the highest values were picked, then their nearest neighbours and some sequences at random.
readout: binding signal (enrichment R)
Express your answer in enrichment R, writing the number without its unit.

>  <binder>
chr6:35489678:35489679:-_ENSMUSG00000029840_ENSMUST00000031866|mus_hu|FALSE|FALSE (ssRNA) RNA: GGGAGUUCUACAGUCCGACGAUCAGAAGAUGAGGAGGCGGUGGCAGCAGCAAGCGGAUGCCGCCGGGCGAGAGGGAGGCAGGGCCGCGCGAAGCCGGAGAGGAGAAGAAGAGAAGGAGGGUUAGGCUGCCAGGCGGGCGAGGCCAACAGAGGAUUGAGCAUCA

>  <binding signal, enrichment R>
3.69

$$$$

Then this binder:
Documented binding signal of 44991723_44991843_1432_CDS_ENSMUSG00000038518_ENSMUST00000173246|mouse|control|control (ssRNA) RNA: GGGAGUUCUACAGUCCGACGAUCCUGAGCAGACCGAUGCGAAGGGGGAGGUUGGUGGUUGGCAGCAAGUCCCUUGGCAGAGGAAGCCGCAGCCGAGGCGGCCGUGGGCUGAGCCCCUGAAGCCUGUUCUCUCCGGCUGUCUGCCAACAGAGGAUUGAGCAUCA : 1.39
